MIC: recorded values
Tested on: Escherichia coli
Assay: Antimicrobial activity against Escherichia coli
Format: functional
Reply numerically in µg/mL, unit not repeated.

A selection of reference data follows.
| compound | MIC (µg/mL) |
| --- | --- |
| CCC(C)CCCCC(=O)N[C@@H](CCNCc1ccc(O)cc1)C(=O)N[C@H](C(=O)N[C@@H](CCN)C(=O)N[C@H]1CCNC(=O)[C@H]([C@@H](C)O)NC(=O)[C@H](CCNCc2ccc(O)cc2)NC(=O)[C@H](CCNCc2cccc(O)c2)NC(=O)[C@H](CC(C)C)NC(=O)[C@@H](CC(C)C)NC(=O)[C@H](CCNCc2ccc(O)cc2)NC1=O)[C@@H](C)O (stereo partly specified) | 5.5 |
| CC(C)C[C@@H]1NC(=O)[C@@H](Cc2ccccc2)NC(=O)[C@H](CCN)NC(=O)[C@@H](NC(=O)[C@H](CCN)NC(=O)[C@H](NC(=O)[C@H](CCN)NC(=O)OCC2c3ccccc3-c3ccccc32)[C@@H](C)O)CCNC(=O)[C@@H]([C@@H](C)O)NC(=O)[C@H](CCN)NC(=O)[C@H](CCN)NC1=O | 8 |
| CCCCCCCC(=O)N[C@@H](CCN)C(=O)N[C@H](C(=O)N[C@@H](CCN)C(=O)N[C@H]1CCNC(=O)[C@H]([C@@H](C)O)NC(=O)[C@H](CCNC(=O)C(N)CCCN)NC(=O)[C@H](CCN)NC(=O)[C@H](CC(C)C)NC(=O)[C@@H](Cc2ccccc2)NC(=O)[C@H](CCN)NC1=O)[C@@H](C)O (stereo partly specified) | 0.173 |

As a next step, examine the compound that follows.
In: What value of MIC has been reported for the following compound? CCC(C)CCCCC(=O)N[C@@H](CCNC(=O)C(N)CCCNC(=N)N)C(=O)N[C@H](C(=O)N[C@@H](CCN)C(=O)N[C@H]1CCNC(=O)[C@H]([C@@H](C)O)NC(=O)[C@H](CCN)NC(=O)[C@H](CCN)NC(=O)[C@H](CC(C)C)NC(=O)[C@@H](Cc2ccccc2)NC(=O)[C@H](CCN)NC1=O)[C@@H](C)O (stereo partly specified)
Out: 0.453
